Target System: T1, human VEGF (hVEGF) (human, UniProt P15692 181-395)
T1 construct: also called VEGF-A
T1 sequence: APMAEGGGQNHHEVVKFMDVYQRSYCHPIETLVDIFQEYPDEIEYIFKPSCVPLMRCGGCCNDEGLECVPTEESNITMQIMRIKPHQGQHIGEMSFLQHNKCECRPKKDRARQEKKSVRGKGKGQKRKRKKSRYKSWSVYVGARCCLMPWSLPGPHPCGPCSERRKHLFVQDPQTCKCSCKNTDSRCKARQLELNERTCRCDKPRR
Protocol Text: SPR single-cycle;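 also: fab variants injected over hVEGF immobilized on a CM5 chip (Biacore T200), threefold dilution series from 0.02 to 50 nM, kinetics fitted with a 1:1 Langmuir model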
Reported Endpoint: kon (M⁻¹ s⁻¹)
Reply numerically in M⁻¹ s⁻¹, unit not repeated.

Solved entries:
Kindly note the recorded kon for G6.31 LC-A51E (Fab, V domains shown, Fab) VH: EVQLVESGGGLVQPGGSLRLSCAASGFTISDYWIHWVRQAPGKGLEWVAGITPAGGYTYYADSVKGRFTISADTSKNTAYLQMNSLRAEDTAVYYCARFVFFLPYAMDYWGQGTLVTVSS VL: DIQMTQSPSSLSASVGDRVTITCRASQDVSTAVAWYQQKPGKAPKLLIYSESFLYSGVPSRFSGSGSGTDFTLTISSLQPEDFATYYCQQGYGNPFTFGQGTKVEIK , which is 172000

Kindly note the recorded kon for G6.31 HC-A40E (Fab, name in Kabat numbering, V domains shown, Fab) VH: EVQLVESGGGLVQPGGSLRLSCAASGFTISDYWIHWVRQEPGKGLEWVAGITPAGGYTYYADSVKGRFTISADTSKNTAYLQMNSLRAEDTAVYYCARFVFFLPYAMDYWGQGTLVTVSS VL: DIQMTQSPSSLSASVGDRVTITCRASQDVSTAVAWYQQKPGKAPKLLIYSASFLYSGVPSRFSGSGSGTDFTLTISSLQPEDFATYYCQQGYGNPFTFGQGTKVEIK , which is 197000

Kindly note the recorded kon for G6.31 HC-P41E (Fab, name in Kabat numbering, V domains shown, Fab) VH: EVQLVESGGGLVQPGGSLRLSCAASGFTISDYWIHWVRQAEGKGLEWVAGITPAGGYTYYADSVKGRFTISADTSKNTAYLQMNSLRAEDTAVYYCARFVFFLPYAMDYWGQGTLVTVSS VL: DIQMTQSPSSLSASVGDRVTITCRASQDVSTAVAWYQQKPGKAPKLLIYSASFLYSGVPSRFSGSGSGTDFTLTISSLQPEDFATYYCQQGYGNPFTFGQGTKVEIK , which is 152000

Kindly note the recorded kon for G6.31 LC-Y55E (Fab, V domains shown, Fab) VH: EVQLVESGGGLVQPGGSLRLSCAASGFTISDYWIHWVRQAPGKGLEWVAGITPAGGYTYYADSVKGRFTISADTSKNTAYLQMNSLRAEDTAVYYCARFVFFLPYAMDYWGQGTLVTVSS VL: DIQMTQSPSSLSASVGDRVTITCRASQDVSTAVAWYQQKPGKAPKLLIYSASFLESGVPSRFSGSGSGTDFTLTISSLQPEDFATYYCQQGYGNPFTFGQGTKVEIK , which is 45300

Proceeding to the next binder to report its kon.
Kindly note the recorded kon for G6.31 HC-N76E (Fab, name in Kabat numbering, V domains shown, Fab) VH: EVQLVESGGGLVQPGGSLRLSCAASGFTISDYWIHWVRQAPGKGLEWVAGITPAGGYTYYADSVKGRFTISADTSKETAYLQMNSLRAEDTAVYYCARFVFFLPYAMDYWGQGTLVTVSS VL: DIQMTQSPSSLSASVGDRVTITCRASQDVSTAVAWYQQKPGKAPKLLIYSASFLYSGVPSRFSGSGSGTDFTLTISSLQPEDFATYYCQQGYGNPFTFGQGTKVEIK , which is 271000
